Here, each record is paired with measured MIC data.
- Tested on: S. pneumoniae D39V
Measured quantity: MIC (µg/mL)

[[record]]
molecule = "CO[C@@H]1[C@@H](OC(N)=O)[C@@H](O)[C@H](Oc2ccc3c(O)c(NC(=O)c4ccc(O)c(CC=C(C)C)c4)c(=O)oc3c2C)OC1(C)C [Novobiocin]"
recorded_value = 2.5

[[record]]
molecule = "CO[C@@]12[C@H](COC(N)=O)C3=C(C(=O)C(C)=C(N)C3=O)N1C[C@@H]1N[C@@H]12 [Mitomycin C]"
recorded_value = 0.062

[[record]]
molecule = "CN[C@@H]1[C@H](O[C@H]2[C@H](O[C@H]3[C@H](O)[C@@H](O)[C@H](N=C(N)N)[C@@H](O)[C@@H]3N=C(N)N)O[C@@H](C)[C@]2(O)C=O)O[C@@H](CO)[C@H](O)[C@H]1O [Streptomycin]"
recorded_value = 8

[[record]]
molecule = "CN[C@@H]1[C@H](O)[C@H](NC)[C@H]2O[C@@]3(O)C(=O)C[C@@H](C)O[C@H]3O[C@@H]2[C@H]1O [Spectinomycin]"
recorded_value = 64


###

Bliss interaction score reference
- Tested on: S. aureus DSM 20231
- Test method notes: Bliss interaction score (quartile over a dose matrix) (fitness difference); higher = more antagonism (negative = synergy)
Measured quantity: Bliss interaction score

[[record]]
molecule = "CO[C@@]12[C@H](COC(N)=O)C3=C(C(=O)C(C)=C(N)C3=O)N1C[C@@H]1N[C@@H]12 [MitomycinC] + CC1=C\\[C@@H](O)CC(=O)Cc2nc(co2)C(=O)N2CCC=C2C(=O)O[C@H](C(C)C)[C@H](C)/C=C/C(=O)NC\\C=C\\1 [Virginiamycin M1]"
tested_target = "S. aureus DSM 20231"
measured_quantity = "Bliss interaction score"
recorded_value = 0.0401

[[record]]
molecule = "CC[C@H]1OC(=O)[C@H](C)[C@@H](O[C@H]2C[C@@](C)(OC)[C@@H](O)[C@H](C)O2)[C@H](C)[C@@H](O[C@@H]2O[C@H](C)C[C@H](N(C)C)[C@H]2O)[C@](C)(O)C[C@@H](C)C(=O)[C@H](C)[C@@H](O)[C@]1(C)O [Erythromycin] + CN(N=O)C(=O)N[C@@H](C=O)[C@@H](O)[C@H](O)[C@H](O)CO [Streptozotocin]"
tested_target = "S. aureus DSM 20231"
measured_quantity = "Bliss interaction score"
recorded_value = -0.0271

[[record]]
molecule = "CO[C@H]1/C=C/O[C@@]2(C)Oc3c(C)c(O)c4c(O)c(c(/C=N/N5CCN(C)CC5)c(O)c4c3C2=O)NC(=O)/C(C)=C\\C=C\\[C@H](C)[C@H](O)[C@@H](C)[C@@H](O)[C@@H](C)[C@H](OC(C)=O)[C@@H]1C [Rifampicin] + CN(C)c1cc(NC(=O)CNC(C)(C)C)c(O)c2c1C[C@H]1C[C@H]3[C@H](N(C)C)C(O)=C(C(N)=O)C(=O)[C@@]3(O)C(O)=C1C2=O [Tigecycline]"
tested_target = "S. aureus DSM 20231"
measured_quantity = "Bliss interaction score"
recorded_value = 0.026

[[record]]
molecule = "CO[C@@]12[C@H](COC(N)=O)C3=C(C(=O)C(C)=C(N)C3=O)N1C[C@@H]1N[C@@H]12 [MitomycinC] + CN[C@H](CC(C)C)C(=O)N[C@H]1C(=O)N[C@@H](CC(N)=O)C(=O)N[C@H]2C(=O)N[C@H]3C(=O)N[C@H](C(=O)N[C@H](C(=O)O)c4cc(O)cc(O)c4-c4cc3ccc4O)[C@H](O)c3ccc(c(Cl)c3)Oc3cc2cc(c3O[C@@H]2O[C@H](CO)[C@@H](O)[C@H](O)[C@H]2O[C@H]2C[C@](C)(N)[C@H](O)[C@H](C)O2)Oc2ccc(cc2Cl)[C@H]1O [Vancomycin]"
tested_target = "S. aureus DSM 20231"
measured_quantity = "Bliss interaction score"
recorded_value = 0.0497

[[record]]
molecule = "CO[C@@]12[C@H](COC(N)=O)C3=C(C(=O)C(C)=C(N)C3=O)N1C[C@@H]1N[C@@H]12 [MitomycinC] + C[n+]1ccc(-c2cc[n+](C)cc2)cc1 [Paraquat]"
tested_target = "S. aureus DSM 20231"
measured_quantity = "Bliss interaction score"
recorded_value = -0.0406

[[record]]
molecule = "CO[C@@H]1[C@@H](OC(N)=O)[C@@H](O)[C@H](Oc2ccc3c(O)c(NC(=O)c4ccc(O)c(CC=C(C)C)c4)c(=O)oc3c2C)OC1(C)C [Novobiocin] + CC[C@H]1OC(=O)[C@H](C)C(=O)[C@H](C)[C@@H](O[C@@H]2O[C@H](C)C[C@H](N(C)C)[C@H]2O)[C@](C)(OC)C[C@@H](C)C(=O)[C@H](C)[C@H]2N(CCCCn3cnc(-c4cccnc4)c3)C(=O)O[C@]12C [Telithromycin]"
tested_target = "S. aureus DSM 20231"
measured_quantity = "Bliss interaction score"
recorded_value = 0.0515


###

- Tested on: S. pneumoniae D39V
- Test method notes: fitness (endpoint OD595 vs no drug) (fraction); higher = more growth
- Reported conditions: first compound 0.105 µg/mL; partner 2 µg/mL
Measured quantity: fitness

[[record]]
molecule = "CC(=O)NC[C@H]1CN(c2ccc(N3CCOCC3)c(F)c2)C(=O)O1 [Linezolid] + COc1ccc(C[C@H](N)C(=O)N[C@H]2[C@@H](O)[C@H](n3cnc4c(N(C)C)ncnc43)O[C@@H]2CO)cc1 [Puromycin]"
tested_target = "S. pneumoniae D39V"
measured_quantity = "fitness"
recorded_value = 0.788

[[record]]
molecule = "CC(=O)NC[C@H]1CN(c2ccc(N3CCOCC3)c(F)c2)C(=O)O1 [Linezolid] + CC1=C\\[C@@H](O)CC(=O)Cc2nc(co2)C(=O)N2CCC=C2C(=O)O[C@H](C(C)C)[C@H](C)/C=C/C(=O)NC\\C=C\\1 [Virginiamycin M1]"
tested_target = "S. pneumoniae D39V"
measured_quantity = "fitness"
recorded_value = 0.856

[[record]]
molecule = "CC(=O)NC[C@H]1CN(c2ccc(N3CCOCC3)c(F)c2)C(=O)O1 [Linezolid] + Cc1cc(NS(=O)(=O)c2ccc(N)cc2)no1 [Sulfamethoxazol]"
tested_target = "S. pneumoniae D39V"
measured_quantity = "fitness"
recorded_value = 0.772

[[record]]
molecule = "CC(=O)NC[C@H]1CN(c2ccc(N3CCOCC3)c(F)c2)C(=O)O1 [Linezolid] + O=C1CN(/N=C/c2ccc([N+](=O)[O-])o2)C(=O)N1 [Nitrofurantoin]"
tested_target = "S. pneumoniae D39V"
measured_quantity = "fitness"
recorded_value = 0.784

[[record]]
molecule = "CC(=O)NC[C@H]1CN(c2ccc(N3CCOCC3)c(F)c2)C(=O)O1 [Linezolid] + CN[C@@H]1[C@H](O[C@H]2[C@H](O[C@H]3[C@H](O)[C@@H](O)[C@H](N=C(N)N)[C@@H](O)[C@@H]3N=C(N)N)O[C@@H](C)[C@]2(O)C=O)O[C@@H](CO)[C@H](O)[C@H]1O [Streptomycin]"
tested_target = "S. pneumoniae D39V"
measured_quantity = "fitness"
recorded_value = 0.763


###

Items are presented alongside their recorded Bliss interaction score.
- System: S. aureus Newman
- Test method notes: Bliss interaction score (quartile over a dose matrix) (fitness difference); higher = more antagonism (negative = synergy)
Measured quantity: Bliss interaction score

[[record]]
compound = "CO[C@@H]1[C@@H](OC(N)=O)[C@@H](O)[C@H](Oc2ccc3c(O)c(NC(=O)c4ccc(O)c(CC=C(C)C)c4)c(=O)oc3c2C)OC1(C)C [Novobiocin] + CN[C@@H]1[C@H](O[C@H]2[C@H](O[C@H]3[C@H](O)[C@@H](O)[C@H](N=C(N)N)[C@@H](O)[C@@H]3N=C(N)N)O[C@@H](C)[C@]2(O)C=O)O[C@@H](CO)[C@H](O)[C@H]1O [Streptomycin]"
recorded_value = -0.172

[[record]]
compound = "CC(=O)NC[C@H]1CN(c2ccc(N3CCOCC3)c(F)c2)C(=O)O1 [Linezolid] + CN[C@H](CC(C)C)C(=O)N[C@H]1C(=O)N[C@@H](CC(N)=O)C(=O)N[C@H]2C(=O)N[C@H]3C(=O)N[C@H](C(=O)N[C@H](C(=O)O)c4cc(O)cc(O)c4-c4cc3ccc4O)[C@H](O[C@H]3C[C@](C)(N)[C@@H](O)[C@H](C)O3)c3ccc(c(Cl)c3)Oc3cc2cc(c3O[C@@H]2O[C@H](CO)[C@@H](O)[C@H](O)[C@H]2O[C@H]2C[C@](C)(NCc3ccc(-c4ccc(Cl)cc4)cc3)[C@@H](O)[C@H](C)O2)Oc2ccc(cc2Cl)[C@H]1O [Oritavancin]"
recorded_value = -0.0463

[[record]]
compound = "CO[C@@H]1[C@@H](OC(N)=O)[C@@H](O)[C@H](Oc2ccc3c(O)c(NC(=O)c4ccc(O)c(CC=C(C)C)c4)c(=O)oc3c2C)OC1(C)C [Novobiocin] + Cc1cc(NS(=O)(=O)c2ccc(N)cc2)no1 [Sulfamethoxazol]"
recorded_value = 0.041

[[record]]
compound = "CO[C@@]12[C@H](COC(N)=O)C3=C(C(=O)C(C)=C(N)C3=O)N1C[C@@H]1N[C@@H]12 [MitomycinC] + C[n+]1ccc(-c2cc[n+](C)cc2)cc1 [Paraquat]"
recorded_value = 0.04

[[record]]
compound = "CO[C@@]12[C@H](COC(N)=O)C3=C(C(=O)C(C)=C(N)C3=O)N1C[C@@H]1N[C@@H]12 [MitomycinC] + CN[C@@H]1[C@H](O[C@H]2[C@H](O[C@H]3[C@H](O)[C@@H](O)[C@H](N=C(N)N)[C@@H](O)[C@@H]3N=C(N)N)O[C@@H](C)[C@]2(O)C=O)O[C@@H](CO)[C@H](O)[C@H]1O [Streptomycin]"
recorded_value = -0.078

[[record]]
compound = "CN[C@@H]1[C@H](O[C@H]2[C@H](O[C@H]3[C@H](O)[C@@H](O)[C@H](N=C(N)N)[C@@H](O)[C@@H]3N=C(N)N)O[C@@H](C)[C@]2(O)C=O)O[C@@H](CO)[C@H](O)[C@H]1O [Streptomycin] + CN(N=O)C(=O)N[C@@H](C=O)[C@@H](O)[C@H](O)[C@H](O)CO [Streptozotocin]"
recorded_value = 0.0357

